Listed compounds paired with reported Food intake (% of vehicle)
test system: Mus musculus; experiment: Reduction of food intake in orally dosed C57BL/6N DIO mouse after 2 hrs at 30 mg/kg relative to control; format: functional; settings: route oral

Compound | Food intake (% of vehicle)
N#Cc1cccc([C@]23CC[C@@H](N(CCCCN4CCOCC4)C(=O)Nc4ccc(F)c(C(F)(F)F)c4)[C@H]2C3)c1 (relative stereo) | 88%
CN1CCN(CCCCN(C(=O)Nc2ccc(F)c(C(F)(F)F)c2)[C@@H]2CC[C@]3(c4cccc(C#N)c4)C[C@H]23)CC1 (relative stereo) | 81.1%
CN1CCN(CCCN(C(=O)Nc2ccc(F)c(C(F)(F)F)c2)[C@@H]2CC[C@]3(c4ccc(C#N)cc4)C[C@H]23)CC1 (relative stereo) | 77.3%
N#Cc1cccc([C@]23CC[C@@H](N(CCCCN4CCCCC4)C(=O)Nc4ccc(F)c(C(F)(F)F)c4)[C@H]2C3)c1 (relative stereo) | 92%
N#Cc1cccc([C@]23CC[C@@H](N(CCN4CC[C@@H](O)C4)C(=O)Nc4ccc(F)c(C(F)(F)F)c4)[C@H]2C3)c1 | 65.7%

* * *

test: AUC (0-6h) in rat at 10 mg/kg, po; type: ADME, organism-based, Plasma; parameters: time < 6 hr, dose 10 mg/kg, route oral; settings: plasma

Compound | AUC(0-t) at 6 h
CN1CCN(CCCN(C(=O)Nc2ccc(F)c(C(F)(F)F)c2)[C@@H]2CC[C@]3(c4ccc(F)cc4)C[C@H]23)CC1 (relative stereo) | 2170 ng·h/mL
N#Cc1cccc([C@]23CC[C@@H](N(CCCCN4CCOCC4)C(=O)Nc4ccc(F)c(C(F)(F)F)c4)[C@H]2C3)c1 (relative stereo) | 450 ng·h/mL
CN1CCN(CCCN(C(=O)Nc2ccc(F)c(Cl)c2)[C@@H]2CC[C@]3(c4cccc(F)c4)C[C@H]23)CC1 (relative stereo) | 722 ng·h/mL
CN1CCN(CCCN(C(=O)Nc2ccc(F)c(C(F)(F)F)c2)[C@@H]2CC[C@]3(c4ccc(C#N)c(F)c4)C[C@H]23)CC1 (relative stereo) | 1660 ng·h/mL

* * *

molecular target: Melanin-concentrating hormone receptor 1 (Mus musculus); test: Receptor occupancy ex vivo by displacement of [125I]S36057 binding from MCHR1 in C57BL/6N mouse brain after 6 hrs at 30 mg/kg, po; type: functional, organism-based; parameters: dose 30 mg/kg
Label 1 (yes) when Activity < 70%; otherwise 0 (no).

Molecule | Assigned category
CC(C)CN1CCN(CCN(C(=O)Nc2ccc(F)c(C(F)(F)F)c2)[C@@H]2CC[C@]3(c4cccc(C#N)c4)C[C@H]23)CC1 (relative stereo) | 1 (yes)
N#Cc1cccc([C@]23CC[C@@H](N(CCN4CC[C@@H](O)C4)C(=O)Nc4ccc(F)c(Cl)c4)[C@H]2C3)c1 (stereo in doubt; (+)-23c) | 1 (yes)
COc1cccc([C@]23CC[C@@H](N(CCCN4CCN(C)CC4)C(=O)Nc4ccc(F)c(C(F)(F)F)c4)[C@H]2C3)c1 (relative stereo) | 0 (no)
CN1CCN(CCCN(C(=O)Nc2ccc(F)c(C(F)(F)F)c2)[C@@H]2CC[C@]3(c4ccc(F)c(C#N)c4)C[C@H]23)CC1 (relative stereo) | 0 (no)
CN1CCN(CCCN(C(=O)Nc2ccc(F)c(Cl)c2)[C@@H]2CC[C@]3(c4ccsc4)C[C@H]23)CC1 (relative stereo) | 1 (yes)
CN1CCN(CCCN(C(=O)Nc2ccc(F)c(C(F)(F)F)c2)[C@@H]2CC[C@]3(c4ccc(C#N)cc4)C[C@H]23)CC1 (relative stereo) | 0 (no)
N#Cc1ccc([C@]23CC[C@@H](N(CCCN4CCNCC4)C(=O)Nc4ccc(F)c(C(F)(F)F)c4)[C@H]2C3)cc1 (relative stereo) | 1 (yes)
Cc1cccc([C@]23CC[C@@H](N(CCCN4CCN(C)CC4)C(=O)Nc4ccc(F)c(Cl)c4)[C@H]2C3)c1 (relative stereo) | 1 (yes)
CN1CCN(CCCN(C(=O)Nc2ccc(F)c(Cl)c2)[C@@H]2CC[C@]3(c4ccc(F)c(F)c4)C[C@H]23)CC1 (relative stereo) | 0 (no)
N#Cc1cccc([C@]23CC[C@@H](N(CCN4CCCCC4)C(=O)Nc4ccc(F)c(Cl)c4)[C@H]2C3)c1 (relative stereo) | 1 (yes)
CN1CCN(CCCN(C(=O)Nc2ccc(F)c(Cl)c2)[C@@H]2CC[C@]3(c4ccc(OC(F)(F)F)cc4)C[C@H]23)CC1 (relative stereo) | 0 (no)
CN1CCN(CCCN(C(=O)Nc2ccc(F)c(Cl)c2)[C@@H]2CC[C@]3(c4cccc(F)c4)C[C@H]23)CC1 (relative stereo) | 0 (no)
N#Cc1cccc([C@]23CC[C@@H](N(CCN4CC[C@@H](O)C4)C(=O)Nc4ccc(F)c(Cl)c4)[C@H]2C3)c1 (stereo in doubt; (-)-23d) | 1 (yes)
N#Cc1cccc([C@]23CC[C@@H](N(CCN4CC[C@H](O)C4)C(=O)Nc4ccc(F)c(C(F)(F)F)c4)C[C@H]2C3)c1 | 0 (no)
CN1CCN(CCCN(C(=O)Nc2ccc(F)c(Cl)c2)[C@@H]2CC[C@]3(c4ccc(S(C)(=O)=O)cc4)C[C@H]23)CC1 (relative stereo) | 1 (yes)
CC(=O)Nc1cccc([C@]23CC[C@@H](N(CCCN4CCN(C)CC4)C(=O)Nc4ccc(F)c(Cl)c4)[C@H]2C3)c1 (relative stereo) | 1 (yes)
CN1CCN(CCCN(C(=O)Nc2ccc(F)c(Cl)c2)[C@@H]2CC[C@]3(c4cccc(OC(F)(F)F)c4)C[C@H]23)CC1 (relative stereo) | 1 (yes)
CN1CCN(CCCN(C(=O)Nc2ccc(F)c(Cl)c2)[C@@H]2CC[C@]3(c4ccccc4)C[C@H]23)CC1 (relative stereo) | 0 (no)
N#Cc1cccc([C@]23CC[C@@H](N(CCN4CC[C@@H](O)C4)C(=O)Nc4ccc(F)c(Cl)c4)C[C@H]2C3)c1 | 1 (yes)
N#Cc1cccc([C@]23CC[C@@H](N(CCN4CC[C@@H](O)C4)C(=O)Nc4ccc(F)c(C(F)(F)F)c4)[C@H]2C3)c1 | 0 (no)
CN1CCN(CCCN(C(=O)Nc2ccc(F)c(C(F)(F)F)c2)[C@@H]2CC[C@]3(c4ccc(C#N)c(F)c4)C[C@H]23)CC1 (relative stereo) | 0 (no)

* * *

Measured Activity accompanies every entry in the list below.
molecular target: Melanin-concentrating hormone receptor 1 (Mus musculus) (UniProt Q8JZL2); assay: Receptor occupancy ex vivo by displacement of [125I]S36057 binding from MCHR1 in C57BL/6N mouse brain after 24 hrs at 30 mg/kg, po; format: functional, organism-based; set-up: dose 30 mg/kg
Sequence (Q8JZL2 whole entry): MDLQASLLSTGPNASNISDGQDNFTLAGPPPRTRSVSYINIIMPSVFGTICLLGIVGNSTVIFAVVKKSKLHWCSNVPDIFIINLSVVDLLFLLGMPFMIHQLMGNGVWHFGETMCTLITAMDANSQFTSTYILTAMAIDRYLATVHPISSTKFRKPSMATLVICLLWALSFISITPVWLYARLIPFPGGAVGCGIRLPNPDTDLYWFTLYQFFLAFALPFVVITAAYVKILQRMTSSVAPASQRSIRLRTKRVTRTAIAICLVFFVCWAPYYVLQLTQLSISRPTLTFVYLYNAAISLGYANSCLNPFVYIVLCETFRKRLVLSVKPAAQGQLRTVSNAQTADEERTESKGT
Attribute measured: Activity (%)

Compound | Test target | Number
CN1CCN(CCCN(C(=O)Nc2ccc(F)c(C(F)(F)F)c2)[C@@H]2CC[C@]3(c4ccc(C#N)cc4)C[C@H]23)CC1 (relative stereo) | Melanin-concentrating hormone receptor 1 (Mus musculus) (UniProt Q8JZL2) | 58
CN1CCN(CCCN(C(=O)Nc2ccc(F)c(Cl)c2)[C@@H]2CC[C@]3(c4cc(F)cc(F)c4)C[C@H]23)CC1 (relative stereo) | Melanin-concentrating hormone receptor 1 (Mus musculus) (UniProt Q8JZL2) | 0
CN1CCN(CCCN(C(=O)Nc2ccc(F)c(Cl)c2)[C@@H]2CC[C@]3(c4cccc(F)c4)C[C@H]23)CC1 (relative stereo) | Melanin-concentrating hormone receptor 1 (Mus musculus) (UniProt Q8JZL2) | 0
CN1CCN(CCCN(C(=O)Nc2ccc(F)c(Cl)c2)[C@@H]2CC[C@]3(c4ccsc4)C[C@H]23)CC1 (relative stereo) | Melanin-concentrating hormone receptor 1 (Mus musculus) (UniProt Q8JZL2) | 12
N#Cc1ccc([C@]23CC[C@@H](N(CCCN4CCNCC4)C(=O)Nc4ccc(F)c(C(F)(F)F)c4)[C@H]2C3)cc1 (relative stereo) | Melanin-concentrating hormone receptor 1 (Mus musculus) (UniProt Q8JZL2) | 0
